assay: AUC (0 to t) in male Sprague-Dawley rat at 10 mg/kg, po measured after 24 hrs by LC-MS analysis; assay type: ADME, organism-based; details: in vivo
quantity.name: AUC(0-t) at 24 h (ng·h/mL)
Report as a plain number; the unit ng·h/mL is understood.

Fill in: AUC(0-t) at 24 h of Cc1cc(-c2ccncc2)cc(C)c1Nc1nc(Nc2ccc(C#N)cc2)ncc1-c1cn[nH]c1.Cl is ___
3460

---

experiment: AUC (0 to infinity) in male Sprague-Dawley rat at 10 mg/kg, po measured after 24 hrs by LC-MS analysis; type: ADME, organism-based; conditions: in vivo
quantity.name: AUC(0-inf) (ng·h/mL)
Report as a plain number; the unit ng·h/mL is understood.

Fill in: AUC(0-inf) of Cc1cc(-c2ccncc2)cc(C)c1Nc1nc(Nc2ccc(C#N)cc2)ncc1-c1cn[nH]c1.Cl is ___
3470

---

assay: Oral bioavailability in male Sprague-Dawley rat at 10 mg/kg measured after 24 hrs by LC-MS analysis; type: ADME, organism-based; conditions: in vivo
quantity.name: bioavailability (%)
Report as a plain number; the unit % is understood.

Fill in: bioavailability of Cc1cc(-c2ccncc2)cc(C)c1Nc1nc(Nc2ccc(C#N)cc2)ncc1-c1cn[nH]c1.Cl is ___
57.4

---

assay: Selectivity index, ratio of CC50 for human MT4 cells to EC50 for wild type HIV-1 IIIB infected in human MT4 cellS; conditions: MT4 cells
For each of the compounds below, state its selectivity ratio.
Lab note: jot down the number only; don't add units.

Fill in: selectivity ratio of Cc1cncc(-c2cnc(Nc3ccc(C#N)cc3)nc2Nc2c(C)cc(-c3ccncc3)cc2C)c1 is ___
656

And for COc1ncc(-c2cnc(Nc3ccc(C#N)cc3)nc2Nc2c(F)cc(-c3ccncc3)cc2F)cc1N ?
4930

And for CN(C)c1ccc(-c2cnc(Nc3ccc(C#N)cc3)nc2Nc2c(F)cc(-c3ccncc3)cc2F)cn1 ?
714

And for Cc1cc(-c2ccncc2)cc(C)c1Nc1nc(Nc2ccc(C#N)cc2)ncc1-c1ccco1 ?
2060

And for Cc1cncc(-c2cnc(Nc3ccc(C#N)cc3)nc2Nc2c(F)cc(-c3ccncc3)cc2F)c1 ?
2540

And for Cc1cc(-c2cnc(Nc3ccc(C#N)cc3)nc2Nc2c(C)cc(-c3ccncc3)cc2C)cc(C)n1 ?
563

And for N#Cc1ccc(Nc2ncc(-c3ccnc(F)c3)c(Nc3c(F)cc(-c4ccncc4)cc3F)n2)cc1 ?
12300

And for Cc1cc(-c2cnc(Nc3ccc(C#N)cc3)nc2Nc2c(F)cc(-c3ccncc3)cc2F)ccn1 ?
8090

And for Cc1ccc(-c2cnc(Nc3ccc(C#N)cc3)nc2Nc2c(F)cc(-c3ccncc3)cc2F)cn1 ?
7300

And for Cc1cc(-c2ccncc2)cc(C)c1Nc1nc(Nc2ccc(C#N)cc2)ncc1-c1ccc(Cl)nc1 ?
3990

And for Cc1cc(-c2cnc(Nc3ccc(C#N)cc3)nc2Nc2c(F)cc(-c3ccncc3)cc2F)cc(C)n1 ?
984

And for COc1ncc(-c2cnc(Nc3ccc(C#N)cc3)nc2Nc2c(C)cc(-c3ccncc3)cc2C)cc1N ?
11300

And for N#Cc1ccc(Nc2ncc(-c3cncc(N)c3)c(Nc3c(F)cc(-c4ccncc4)cc3F)n2)cc1 ?
2380

And for N#Cc1ccc(Nc2ncc(-c3ccsc3)c(Nc3c(F)cc(-c4ccncc4)cc3F)n2)cc1 ?
10100

And for COc1ccc(-c2cnc(Nc3ccc(C#N)cc3)nc2Nc2c(F)cc(-c3ccncc3)cc2F)cn1 ?
6430

---

assay: Solubility of compound in phosphate buffer at pH 2.0 measured after 24 hrs by HPLC analysis; type: physicochemical
For each of the compounds below, state its solubility at 24 h.
Report as a plain number; the unit µg/mL is understood.

Fill in: solubility at 24 h of Cc1cc(-c2ccncc2)cc(C)c1Nc1nc(Nc2ccc(C#N)cc2)ncc1-c1cn[nH]c1.Cl is ___
782

And for Cc1cc(-c2ccncc2)cc(C)c1Nc1nc(Nc2ccc(C#N)cc2)ncc1-c1cn[nH]c1 ?
1190

---

molecular target: UniProtKB P10635
Sequence (P10635 whole entry): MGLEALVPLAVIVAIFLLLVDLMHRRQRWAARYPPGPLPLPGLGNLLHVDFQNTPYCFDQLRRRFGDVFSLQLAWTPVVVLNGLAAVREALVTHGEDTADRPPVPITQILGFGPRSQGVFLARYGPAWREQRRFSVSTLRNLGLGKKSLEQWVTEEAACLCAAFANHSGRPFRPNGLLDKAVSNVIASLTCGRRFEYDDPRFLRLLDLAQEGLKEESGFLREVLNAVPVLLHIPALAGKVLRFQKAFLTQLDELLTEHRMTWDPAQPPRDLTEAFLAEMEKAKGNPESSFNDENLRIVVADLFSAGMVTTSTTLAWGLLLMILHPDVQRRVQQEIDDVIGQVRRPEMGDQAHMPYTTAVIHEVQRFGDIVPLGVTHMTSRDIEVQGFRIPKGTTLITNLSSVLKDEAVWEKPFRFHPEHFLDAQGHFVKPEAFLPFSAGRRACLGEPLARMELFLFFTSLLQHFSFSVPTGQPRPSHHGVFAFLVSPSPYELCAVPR
pIC50: −log10 of the molar value.
quantity.name: pIC50

Recorded pIC50 for Cc1cc(-c2ccncc2)cc(C)c1Nc1nc(Nc2ccc(C#N)cc2)ncc1-c1cn[nH]c1 with UniProtKB P10635, please?
< 4.30

---

test: Half-life in male Sprague-Dawley rat at 10 mg/kg, po measured after 24 hrs by LC-MS analysis; type: ADME, organism-based; conditions: in vivo
quantity.name: half-life

Fill in: half-life of Cc1cc(-c2ccncc2)cc(C)c1Nc1nc(Nc2ccc(C#N)cc2)ncc1-c1cn[nH]c1.Cl is ___
2.92 h

---

test: Tmax in male Sprague-Dawley rat at 10 mg/kg, po measured after 24 hrs by LC-MS analysis; assay type: ADME, organism-based; conditions: in vivo
quantity.name: Tmax (h)
Report as a plain number; the unit h is understood.

Fill in: Tmax of Cc1cc(-c2ccncc2)cc(C)c1Nc1nc(Nc2ccc(C#N)cc2)ncc1-c1cn[nH]c1.Cl is ___
1

---

assay: Cmax in male Sprague-Dawley rat at 1 mg/kg, iv measured after 24 hrs by LC-MS analysis; assay type: ADME, organism-based; conditions: in vivo
quantity.name: Cmax (ng/mL)
Report as a plain number; the unit ng/mL is understood.

Fill in: Cmax of Cc1cc(-c2ccncc2)cc(C)c1Nc1nc(Nc2ccc(C#N)cc2)ncc1-c1cn[nH]c1.Cl is ___
572

---

target: Human immunodeficiency virus type 1 reverse transcriptase (Human immunodeficiency virus 1); assay: Inhibition of recombinant wild type HIV-1 Reverse transcriptase incubated for 40 mins by Pico-green reagent based fluorescence analysis
pIC50: −log10 of the molar value.
I would appreciate it if you labelled entries True when pIC50 is 7 or higher, otherwise False.

Does the compound Cc1cc(-c2ccncc2)cc(C)c1Nc1nc(Nc2ccc(C#N)cc2)ncc1-c1cn[nH]c1 have recorded pIC50 that is 7 or more?
True

And for N#Cc1ccc(Nc2nccc(Nc3c(F)cc(-c4ccncc4)cc3F)n2)cc1 ?
True

And for Cc1cc(-c2ccncc2)cc(C)c1Nc1nc(Nc2ccc(C#N)cc2)ncc1-c1ccc(Cl)nc1 ?
False

And for Cc1cc(-c2ccncc2)cc(C)c1Nc1nc(Nc2ccc(C#N)cc2)ncc1-c1cncc(Cl)c1 ?
False

---

experiment: Tmax in male Sprague-Dawley rat at 1 mg/kg, iv measured after 24 hrs by LC-MS analysis; assay type: ADME, organism-based; details: in vivo
quantity.name: Tmax (min)
Report as a plain number; the unit min is understood.

Fill in: Tmax of Cc1cc(-c2ccncc2)cc(C)c1Nc1nc(Nc2ccc(C#N)cc2)ncc1-c1cn[nH]c1.Cl is ___
4.8

---

For each of the molecules below, state its solubility at 24 h.
assay: Solubility of compound in phosphate buffer at pH 7.4 measured after 24 hrs by HPLC analysis; type: physicochemical

Fill in: solubility at 24 h of Cc1cc(C#N)cc(C)c1Oc1nc(Nc2ccc(C#N)cc2)nc(N)c1Br [ETRAVIRINE] is ___
< 1 µg/mL

And for Cc1cc(-c2ccncc2)cc(C)c1Nc1nc(Nc2ccc(C#N)cc2)ncc1-c1cn[nH]c1.Cl ?
< 1 µg/mL

And for Cc1cc(-c2ccncc2)cc(C)c1Nc1nc(Nc2ccc(C#N)cc2)ncc1-c1cn[nH]c1 ?
< 1 µg/mL

---

experiment: Cytotoxicity against human MT4 cells assessed as reduction in cell viability measured after 5 days by MTT assay; settings: MT4 cells
quantity.name: log10(CC50 at 120 h) (log10 of the value in µM)
Reminder: these figures are log10 of reported CC50 at 120 h, in µM before transformation.

Fill in: log10(CC50 at 120 h) of Cc1ccc(-c2cnc(Nc3ccc(C#N)cc3)nc2Nc2c(C)cc(-c3ccncc3)cc2C)cn1 is ___
2.30

And for Cc1cc(-c2ccncc2)cc(C)c1Nc1nc(Nc2ccc(C#N)cc2)ncc1-c1ccc(F)nc1 ?
1.68

And for Cc1cc(-c2ccncc2)cc(C)c1Nc1nc(Nc2ccc(C#N)cc2)ncc1-c1ccnc(Cl)c1 ?
2.20

And for N#Cc1ccc(Nc2ncc(-c3ccnc(F)c3)c(Nc3c(F)cc(-c4ccncc4)cc3F)n2)cc1 ?
2.08

And for Cc1cncc(-c2cnc(Nc3ccc(C#N)cc3)nc2Nc2c(C)cc(-c3ccncc3)cc2C)c1 ?
1.06

---

For each of the compounds below, state its pEC50.
system: Human immunodeficiency virus 1; assay: Antiviral activity against HIV-1 harboring RT K103N/Y181C double mutant infected in human MT4 cells assessed as protection against virus-induced cytopathic effect incubated for 5 days by MTT assay; assay type: functional, organism-based; settings: Human immunodeficiency virus 1, MT4, 120 h
In simple prose, pEC50 is minus the logarithm base ten of a concentration in moles per litre.

Fill in: pEC50 of Cc1cc(-c2ccncc2)cc(C)c1Nc1nc(Nc2ccc(C#N)cc2)ncc1-c1cn[nH]c1 is ___
7.38

And for Cc1cc(C#N)cc(C)c1Oc1nc(Nc2ccc(C#N)cc2)nc(N)c1Br [ETRAVIRINE] ?
7.37

And for Cc1cc(-c2ccncc2)cc(C)c1Nc1nc(Nc2ccc(C#N)cc2)ncc1-c1ccnc(Cl)c1 ?
6.22

And for Cc1cc(-c2ccncc2)cc(C)c1Nc1nc(Nc2ccc(C#N)cc2)ncc1-c1ccco1 ?
6.99

And for Cc1cc(-c2ccncc2)cc(C)c1Nc1nc(Nc2ccc(C#N)cc2)ncc1-c1cncc(N)c1 ?
6.42

And for Cc1cc(-c2ccncc2)cc(C)c1Nc1nc(Nc2ccc(C#N)cc2)ncc1-c1ccc(F)nc1 ?
6.32

And for Cc1cc(-c2ccncc2)cc(C)c1Nc1nc(Nc2ccc(C#N)cc2)ncc1-c1ccsc1 ?
6.59

And for Cc1cc(-c2ccncc2)cc(C)c1Nc1nc(Nc2ccc(C#N)cc2)ncc1-c1ccncc1 ?
5.93

And for N#Cc1ccc(Nc2nccc(Nc3c(F)cc(-c4ccncc4)cc3F)n2)cc1 ?
7.19

And for Cc1cc(-c2ccncc2)cc(C)c1Nc1nc(Nc2ccc(C#N)cc2)ncc1-c1cncc(Cl)c1 ?
6.01

And for Cc1cc(-c2cnc(Nc3ccc(C#N)cc3)nc2Nc2c(C)cc(-c3ccncc3)cc2C)ccn1 ?
6.03

And for Cc1ccc(-c2cnc(Nc3ccc(C#N)cc3)nc2Nc2c(C)cc(-c3ccncc3)cc2C)cn1 ?
6.40

And for COc1cc(-c2cnc(Nc3ccc(C#N)cc3)nc2Nc2c(C)cc(-c3ccncc3)cc2C)ccn1 ?
6.23

And for Cc1cc(-c2ccncc2)cc(C)c1Nc1nc(Nc2ccc(C#N)cc2)ncc1-c1ccc(N)nc1 ?
6.81

And for Cc1cc(-c2ccncc2)cc(C)c1Nc1nc(Nc2ccc(C#N)cc2)ncc1-c1ccnc(F)c1 ?
6.37

And for Cc1cc(-c2ccncc2)cc(C)c1Nc1nc(Nc2ccc(C#N)cc2)ncc1-c1cccs1 ?
6.83

And for COc1ncc(-c2cnc(Nc3ccc(C#N)cc3)nc2Nc2c(C)cc(-c3ccncc3)cc2C)cc1N ?
6.94

Where do the numbers come from? From ChEMBL document CHEMBL6120973.
